System: PC-3 prostate
Assay: NCI tumour cell line growth inhibition, 48 h; in the data active means GI50 below about 0.43 µM; inactive means the rest
Respond only with the outcome that fits, drawn from active, inactive

Sample answers from the record:
{"compound": "C/C(=N/Nc1nc2ccccc2n1C)c1ccccn1", "group-label": "active"}
{"compound": "O=C1NC(O)C(c2c[nH]c3ccccc23)=C1c1c[nH]c2ccccc12 (stereo unspecified)", "group-label": "inactive"}
{"compound": "Cc1cc(S(N)(=O)=O)c(S/C(CC(C)C)=N\\Nc2ccc([N+](=O)[O-])cc2)cc1Cl", "group-label": "inactive"}

Hi team, can someone confirm the assay call for `c1ccc2[nH]c(-c3ccc(NN=Nc4ccncc4)cc3)nc2c1` ?
inactive

Hi team, can someone confirm the assay call for `O=C1C(=O)c2ccccc2C(O)=C1CC=C(Br)Br` ?
inactive

Hi team, can someone confirm the assay call for `COc1cc2c3c(n(CCCN)c(=O)c2cc1OC)-c1cc2c(cc1/C3=C\CCN)OCO2` ?
inactive

====

Measured TGI of individual entries
System: KM12 colon
Test: NCI tumour cell line growth inhibition, 48 h
Numbers only here, please. The scale is µM.

Examples with their reported TGI follow.
{"sample-smiles": "Cc1ccc(-n2c3c(c4c(CN(C)C)c(O)ccc42)CCc2ccccc2C3=O)cc1", "TGI [µM]": 40}
{"sample-smiles": "COc1ccc(/C=C/C(=O)c2ccc(SC)cc2)cc1OC", "TGI [µM]": 22.6}
{"sample-smiles": "C=CC[N+]12CN3CN(CN(C3)C1)C2", "TGI [µM]": 66.8}

# context switch: different compound, same TGI
What TGI value was documented for this compound, `O=c1nc2n(-c3ccc(Cl)cc3)c3ccc([N+](=O)[O-])cc3cc-2c(=O)[nH]1` ?
20

====

Test system: HT29 colon
Test: NCI tumour cell line growth inhibition, 48 h; in the data active = GI50 below about 0.43 µM; inactive = the rest
Respond only with the outcome that fits, drawn from active, inactive

Sample answers from the record:
{"sample-smiles": "O=c1ccc2nc(-c3ccccc3)nn(-c3ccccn3)c-2c1", "assayed-system": "HT29 colon", "group-label": "inactive"}
{"sample-smiles": "COc1cc2c3c(n(CCCN)c(=O)c2cc1OC)-c1cc2c(cc1/C3=C\\CCN)OCO2", "assayed-system": "HT29 colon", "group-label": "active"}

Hi team, can someone confirm the assay call for `NC(N)=N/N=C\c1cccc(OCc2ccccc2)c1` ?
inactive

Hi team, can someone confirm the assay call for `C/C(=N\Nc1cc(C)c2cc(C)ccc2n1)c1ccccn1` ?
active

Hi team, can someone confirm the assay call for `CC(=O)[CH-]C(=O)c1ccccc1.CC(=O)[CH-]C(=O)c1ccccc1.[Eu+3].[OH-].[OH3+]` ?
inactive

====

Test system: BT-549 breast
Test: NCI tumour cell line growth inhibition, 48 h
Measured TGI of individual entries

Examples with their reported TGI follow.
{"compound": "CC(C)c1cc(CN(C)C)c(O)c(C(C)(C)C)c1", "reported-metric": "TGI", "meas-value": "> 100 µM"}
{"compound": "O=C(CC(C(=O)c1cccs1)c1ccsc1)c1cccs1 (stereo not given)", "reported-metric": "TGI", "meas-value": "> 100 µM"}

What TGI value was documented for this compound, `Nc1c2c(=O)[nH]c(=O)c2c(N)c2c(=O)c3ccccc3c(=O)c12` ?
3.71 µM

What TGI value was documented for this compound, `C=C(CN1C(=O)[C@H]2CCCN2C(=O)c2ccccc21)c1ccc(C(=O)O)cc1` ?
> 100 µM
